# maps each entry to its inhibition
Tested on: transactivating tegument protein VP16 (Human herpesvirus 1), Gal4-VP16 luciferase reporter
Test: VP16 transactivation inhibitors, counter-screen for SRC3 inhibitor project, cell-based, luminescence, high throughput (AID 588794)
Conditions: mammalian cells, VP16-driven luciferase reporter luminescence; at 3.6 µM; stronger effect = higher value
Field: numeric (%). Do not append units.

# inhibition of `Cc1cc(/C=C2\SC(=S)N(C)C2=O)c(C)n1-c1cccc(O)c1` = 38

Value of measured inhibition for the entry `O=C(Nc1ccc([N+](=O)[O-])cc1)c1ccc(Cn2cc([N+](=O)[O-])cn2)cc1` : 58.7

Record `CC(=NNC(=S)N1CCN(C2CCCCCC2)CC1)c1ccccn1` . Reported inhibition: 83.7

inhibition measured on `CN(c1ccccc1)S(=O)(=O)c1cccc(C(=O)OCC(=O)Nc2ccc(C(N)=O)cc2)c1` = -5.87

// `S=C(Nc1cccc2ccccc12)NN1CCCCCC1` : inhibition value = 33
